Data provenance: patent US20130109682A1

SYSTEM_NAME: GSK3β (Homo sapiens, UniProt P49841)
Sequence (P49841 whole entry, species assumed): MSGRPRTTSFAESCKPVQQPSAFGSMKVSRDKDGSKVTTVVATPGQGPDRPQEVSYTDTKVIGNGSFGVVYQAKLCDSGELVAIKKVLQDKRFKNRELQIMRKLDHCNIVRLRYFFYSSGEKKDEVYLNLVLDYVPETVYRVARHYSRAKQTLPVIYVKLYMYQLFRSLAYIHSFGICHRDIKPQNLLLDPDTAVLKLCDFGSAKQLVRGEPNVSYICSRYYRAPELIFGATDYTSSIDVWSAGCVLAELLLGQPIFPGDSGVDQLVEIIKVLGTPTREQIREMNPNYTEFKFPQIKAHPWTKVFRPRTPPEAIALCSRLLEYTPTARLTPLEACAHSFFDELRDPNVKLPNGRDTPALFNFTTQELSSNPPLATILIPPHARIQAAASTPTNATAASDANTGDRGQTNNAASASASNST
ASSAY_DETAILS: GSK3β ATP depletion assay
Type: biochemical
CONDITION_SET: ATP depletion assay; read-out: GSK3b IC50
VALUE_KIND: IC50 (µM)

I: C[C@H]1O[C@@H](c2ccncc2NC(=O)c2ccc(F)c(-c3c(F)cc(S(C)(=O)=O)cc3F)n2)C[C@@H](N)[C@]1(C)O
II: C[C@H]1O[C@@H](c2ccncc2NC(=O)c2ccc(F)c(-c3ccc(N)nc3F)n2)C[C@@H](N)[C@]1(C)O
III: O=C(Nc1cnccc1[C@H]1C[C@@H](O)[C@H](O)C2(CC2)O1)c1ccc(F)c(-c2c(F)cccc2F)n1
Req: Rank the compounds listed above in increasing order of IC50. Give your ranking as a list of the labels in the requested order.
Resp: III, I, II

P: CC[C@H]1OC(c2ccncc2NC(=O)c2ccc(F)c(-c3c(F)cc(S(C)(=O)=O)cc3F)n2)C[C@@H](N)[C@]1(C)O (stereo in doubt)
Q: CC(C)[C@H]1O[C@@H](c2ccncc2NC(=O)c2ccc(F)c(-c3cnc4[nH]ccc4c3)n2)C[C@@H](N)[C@@H]1O
Req: Which value of IC50 is numerically greater: that of P or that of Q ? Respond with the label that goes with your answer.
Resp: P
(P: 12.5 µM, Q: 4.3 µM)

A: N[C@H]1C[C@@H](c2ccncc2NC(=O)c2ccc(F)c(-c3c(F)cccc3F)n2)O[C@H]2CCC[C@H]21
B: CC(C)[C@@H]1C[C@H](N)C[C@H](c2ccncc2NC(=O)c2nc(-c3ccccc3)cnc2N)O1
C: C[C@@]1(O)[C@@H](N)C[C@@H](c2ccncc2NC(=O)c2nc(-c3ccccc3)cnc2N)O[C@H]1C1CC1
Req: Arrange these 3 compounds in increasing order of IC50. Provide the labels, sequenced as the question asks.
Resp: B, C, A
(B: 0.0044 µM, C: 0.57 µM, A: 9.83 µM)

a: CC[C@H]1O[C@@H](c2ccncc2NC(=O)c2ccc(F)c(-c3c(F)cccc3F)n2)C[C@@H](N)[C@]1(C)O (stereo in doubt)
b: CC(C)(C)[C@H]1O[C@@H](c2ccncc2NC(=O)c2ccnc(-c3c(F)cccc3F)n2)C[C@@H](N)[C@@H]1O
c: CCC[C@H]1O[C@@H](c2ccncc2NC(=O)c2nc(-c3ccccc3)cnc2N)C[C@@H](O)[C@@H]1O
Req: Your job: order these 3 records by IC50, ascending. List the labels, following the order given in the request.
Resp: c, b, a

* * *

SYSTEM_NAME: PIM3 (Homo sapiens)
ASSAY_DETAILS: Pim 3 AlphaScreen assay (high ATP)
Assay type: biochemical
CONDITION_SET: read-out: Pim3 IC50
VALUE_KIND: IC50 (nM)

{"GIVEN_SMILES": "CC[C@]1(O)[C@H](N)C[C@H](c2ccncc2NC(=O)c2ccc(F)c(-c3c(F)cc(OC)cc3F)n2)O[C@@H]1C", "UNITS_OF_MEASURE": "nM", "IC50": 0.5}

1: C[C@H]1O[C@@H](c2ccncc2NC(=O)c2ccc(F)c(-c3ccc(S(C)(=O)=O)cc3)n2)C[C@@H](N)[C@]1(C)O
2: CC(C)(C)[C@H]1O[C@@H](c2ccncc2NC(=O)c2csc(-c3c(F)cccc3F)n2)C[C@@H](N)[C@@H]1O
3: Cc1cc(F)c(-c2nc(C(=O)Nc3cnccc3[C@H]3C[C@@H](N)[C@H](O)[C@@H](C(C)(C)C)O3)ccc2F)c(F)c1
4: C[C@]1(O)[C@H](N)C[C@H](c2ccncc2NC(=O)c2ccc(F)c(-c3c(F)cccc3F)n2)O[C@@H]1C1CC1
Req: Order these by IC50, descending, and give the full ranking. Note for the reader: the ranking is given by listing the labels in the order requested.
Resp: 1, 2, 4, 3

* * *

SYSTEM_NAME: PIM3 (Homo sapiens)
ASSAY_DETAILS: KinaseGlo Pim3 ATP depletion assay
Assay type: biochemical
pIC50: −log10 of the molar value.
VALUE_KIND: pIC50

Recorded results for 5 compounds are shown here.
{"COMPOUND": "N#CC[C@H]1O[C@@H](c2ccncc2NC(=O)c2ccc(C#N)c(-c3c(F)cccc3F)n2)CC[C@@H]1O [Example 45]", "SYSTEM_NAME": "PIM3 (Homo sapiens)", "pIC50": 6.47}
{"COMPOUND": "CC1(C)O[C@H](c2ccncc2NC(=O)c2ccc(F)c(-c3c(F)cccc3F)n2)C[C@@H](O)[C@H]1O [Example 91]", "SYSTEM_NAME": "PIM3 (Homo sapiens)", "pIC50": 7.89}
{"COMPOUND": "O=C(Nc1cnccc1[C@H]1C[C@@H](O)[C@@]2(O)CCCC[C@H]2O1)c1c[nH]cc(-c2ccccc2)c1=O [Example 178]", "SYSTEM_NAME": "PIM3 (Homo sapiens)", "pIC50": 6.91}
{"COMPOUND": "CC[C@H]1O[C@@H](c2ccncc2NC(=O)c2nc(-c3c(F)cccc3F)ncc2N)C[C@@H](O)[C@@H]1O [Example 18]", "SYSTEM_NAME": "PIM3 (Homo sapiens)", "pIC50": 8.30}
{"COMPOUND": "O=C(Nc1cnccc1[C@H]1OCC[C@@H](CO)O1)c1csc(-c2c(F)cccc2F)n1 [Example 102]", "SYSTEM_NAME": "PIM3 (Homo sapiens)", "pIC50": 6.99}

A: N#CC[C@H]1O[C@@H](c2ccncc2NC(=O)c2ccc(F)c(-c3c(F)cccc3F)n2)CC[C@@H]1O [Example 46]
B: Nc1cnc(-c2c(F)cccc2F)nc1C(=O)Nc1cnccc1[C@@H]1C[C@H](O)[C@]2(O)CCC[C@@H]2O1 [Example 182]
Req: Higher pIC50 between A and B ? API: response body contains the label of the selected item.
Resp: A

1: C[C@@H]1O[C@H](c2ccncc2NC(=O)c2ccc(F)c(-c3c(F)cccc3F)n2)[C@@H](F)[C@H](O)[C@@]1(C)O (stereo in doubt) [Example 71]
2: C[C@@H]1O[C@H](c2ccncc2NC(=O)c2cncc(-c3ccccc3)n2)C[C@H](O)[C@@]1(C)O [Example 87]
Req: Between 1 and 2 , whose measured pIC50 reads higher? Use the label to indicate which entry you chose.
Resp: 1
(1: 8.22, 2: 5.57)

I: C[C@H]1O[C@@H](c2ccncc2NC(=O)c2ccc(F)c(-c3ccccc3F)n2)C[C@@H](O)[C@]1(C)O [Example 93]
II: C[C@H]1[C@H](O)C[C@H](c2ccncc2NC(=O)c2ccc(F)c(-c3c(F)cccc3F)n2)O[C@@H]1C (stereo in doubt) [Example 97]
Req: Record comparison, field pIC50: mark the lower of I and II . // output: label of the selected item
Resp: II
(II: 7.43, I: 8.30)

* * *

SYSTEM_NAME: GSK3β (Homo sapiens)
ASSAY_DETAILS: GSK3β ATP depletion assay
Type: biochemical
CONDITION_SET: read-out: GSK3b IC50
VALUE_KIND: IC50 (nM)

{"MOLECULE": "CC[C@]1(O)[C@H](O)C[C@H](c2ccncc2NC(=O)c2ncccc2N)O[C@@H]1C [Example 158]", "UNITS_OF_MEASURE": "nM", "OBS_VALUE": 23.1}
{"MOLECULE": "C=C[C@H]1OC(c2ccncc2NC(=O)c2nc(-c3ccccc3)ncc2N)=C[C@@H](O)[C@@H]1O [Example 22]", "UNITS_OF_MEASURE": "nM", "OBS_VALUE": 870}

I: C[C@H]1O[C@@H](c2ccncc2NC(=O)c2csc(-c3c(F)cccc3F)n2)C[C@@H](N)[C@@H]1O [Example 114]
II: CC1(C)O[C@H](c2ccncc2NC(=O)c2ccc(F)c(-c3c(F)cccc3F)n2)C[C@@H](O)[C@H]1O [Example 91]
III: CC[C@]1(O)[C@H](O)C[C@H](c2ccncc2NC(=O)c2nc(-c3cnn(C)c3C)ccc2N)O[C@@H]1C [Example 156]
IV: C[C@H]1[C@H](C)O[C@H](c2ccncc2NC(=O)c2csc(-c3c(F)cccc3F)n2)C[C@@H]1O (stereo in doubt) [Example 94]
V: CC[C@@H]1O[C@H](c2ccncc2NC(=O)c2nc(-c3c(F)cccc3F)ncc2N)C[C@H](O)[C@@]1(C)O [Example 167]
Req: Task field, ranking: reported IC50, descending order. Put the labels in the requested order and write them down.
Resp: V, I, II, III, IV
(V: 3410 nM, I: 652 nM, II: 171 nM, III: 21.9 nM, IV: 11 nM)

* * *

SYSTEM_NAME: KDR kinase (Homo sapiens)
Sequence (P35968 20-1356): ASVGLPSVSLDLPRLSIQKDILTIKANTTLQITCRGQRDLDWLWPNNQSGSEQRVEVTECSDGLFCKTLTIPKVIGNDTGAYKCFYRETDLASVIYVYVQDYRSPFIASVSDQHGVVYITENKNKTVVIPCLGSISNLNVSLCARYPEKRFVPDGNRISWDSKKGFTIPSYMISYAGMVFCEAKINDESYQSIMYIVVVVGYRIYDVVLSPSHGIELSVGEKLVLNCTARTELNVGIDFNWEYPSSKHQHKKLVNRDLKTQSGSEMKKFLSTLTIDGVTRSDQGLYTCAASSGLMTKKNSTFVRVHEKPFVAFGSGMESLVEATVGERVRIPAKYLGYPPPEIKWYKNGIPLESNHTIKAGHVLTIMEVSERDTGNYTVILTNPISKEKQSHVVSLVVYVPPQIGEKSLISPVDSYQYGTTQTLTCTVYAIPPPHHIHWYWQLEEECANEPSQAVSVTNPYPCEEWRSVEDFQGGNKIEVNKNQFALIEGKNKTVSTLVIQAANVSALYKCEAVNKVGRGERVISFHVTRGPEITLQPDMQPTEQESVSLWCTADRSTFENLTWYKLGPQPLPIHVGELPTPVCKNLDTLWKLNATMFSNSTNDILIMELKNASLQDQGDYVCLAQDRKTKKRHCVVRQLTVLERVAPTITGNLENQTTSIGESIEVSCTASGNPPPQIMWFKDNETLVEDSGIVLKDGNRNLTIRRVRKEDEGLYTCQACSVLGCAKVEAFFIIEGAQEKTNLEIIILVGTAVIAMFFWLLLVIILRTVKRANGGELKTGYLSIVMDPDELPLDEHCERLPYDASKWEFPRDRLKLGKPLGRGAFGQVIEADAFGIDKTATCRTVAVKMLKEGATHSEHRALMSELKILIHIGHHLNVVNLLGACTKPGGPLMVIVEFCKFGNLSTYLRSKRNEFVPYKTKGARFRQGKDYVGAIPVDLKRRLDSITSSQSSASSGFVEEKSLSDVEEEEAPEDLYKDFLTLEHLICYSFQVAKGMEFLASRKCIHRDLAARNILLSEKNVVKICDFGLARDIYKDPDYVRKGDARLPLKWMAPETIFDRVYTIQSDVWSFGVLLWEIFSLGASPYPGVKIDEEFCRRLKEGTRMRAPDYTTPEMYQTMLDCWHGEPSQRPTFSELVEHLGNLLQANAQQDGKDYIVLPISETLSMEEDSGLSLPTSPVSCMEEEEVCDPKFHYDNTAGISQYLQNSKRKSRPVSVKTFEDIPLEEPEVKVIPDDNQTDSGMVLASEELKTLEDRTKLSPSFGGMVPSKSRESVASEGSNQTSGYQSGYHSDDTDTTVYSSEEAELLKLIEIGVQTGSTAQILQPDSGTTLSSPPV
ASSAY_DETAILS: KDR kinase inhibition assay (LanthaScreen TR-FRET)
Type: biochemical
pIC50: −log10 of the molar value.
VALUE_KIND: pIC50

A selection of reference data follows.
{"MOLECULE": "C=C1[C@@H](O)C[C@@H](c2ccncc2NC(=O)c2nc(-c3ccccc3)cnc2N)OC12CC2 [Example 5]", "SYSTEM_NAME": "KDR kinase (Homo sapiens)", "pIC50": 8.00}
{"MOLECULE": "C[C@@H]1O[C@H](c2ccncc2NC(=O)c2nc(-c3ccccc3)cnc2N)[C@@H](F)[C@H](O)[C@@]1(C)O [Example 63]", "SYSTEM_NAME": "KDR kinase (Homo sapiens)", "pIC50": 6.66}
{"MOLECULE": "C[C@@H]1O[C@H](c2ccncc2NC(=O)c2nc(-c3ccccc3)cnc2N)C[C@H](O)[C@@]1(C)O [Example 86]", "SYSTEM_NAME": "KDR kinase (Homo sapiens)", "pIC50": 6.52}
{"MOLECULE": "Nc1ncc(-c2ccccc2)nc1C(=O)Nc1cnccc1[C@H]1C[C@@H](O)[C@H](O)[C@@H](CCl)O1 [Example 36]", "SYSTEM_NAME": "KDR kinase (Homo sapiens)", "pIC50": 9.00}

a: C[C@H]1O[C@@H](c2ccncc2NC(=O)c2nc(-c3ccccc3)cnc2N)[C@H](F)[C@@H](O)[C@]1(C)O [Example 58]
b: C[C@H]1O[C@@H](c2ccncc2NC(=O)c2nc(-c3ccccc3)cnc2N)C[C@@H](O)[C@]1(C)O [Example 84]
Req: Would you kindly point out which of a and b has the smaller pIC50 figure? Selection: enter the item's label.
Resp: a
